We begin with a simple list: items and their reported Population Healthy Nuclei (%).
system: U2OS; assay: Multiplex assay against U2OS; type: toxicity, cell-based; details: human, 48 h, 10 µM, compound concentration 10 uM, replicate 1

| compound | target | unit.abbreviation | Population Healthy Nuclei (%) |
| --- | --- | --- | --- |
| NC(=O)Nc1cc(-c2cccc(F)c2)sc1C(=O)N[C@H]1CCCNC1 | U2OS | % | 1 |
| CN1CCN(c2ccc(OC(F)(F)F)c(Nc3ncc4c(n3)-c3c(c(C(N)=O)nn3CCO)CC4)c2)CC1 | U2OS | % | 63 |
| CNc1nc(NCc2ccc(NS(C)(=O)=O)cc2Cl)cc(-c2ccccn2)n1 | U2OS | % | 53 |
| C[C@@H](NCCCc1cccc(C(F)(F)F)c1)c1cccc2ccccc12.Cl [CINACALCET HYDROCHLORIDE] | U2OS | % | 33 |
| Cc1nc(-c2ccc(-c3ccc(C(=O)N4CCc5cc6c(cc54)C4(CCN(C)CC4)CO6)cc3)c(C)c2)no1 | U2OS | % | 28 |
| Cc1c(-c2ccc(O)cc2)n(Cc2ccc(OCCN3CCCCCC3)cc2)c2ccc(O)cc12 | U2OS | % | 5 |
| COc1cc(-n2cnc3cc(-c4ccc(Cl)cc4)sc3c2=O)ccc1OCCN1CCCC1 | U2OS | % | 7 |
| O=C1NCN(c2ccccc2)C12CCN(CCCOc1ccc(F)cc1)CC2 [SPIRAMIDE] | U2OS | % | 21 |
| Cl.N#Cc1ccc2[nH]cc(CCCCN3CCN(c4ccc5oc(C(N)=O)cc5c4)CC3)c2c1 [VILAZODONE HYDROCHLORIDE] | U2OS | % | 7 |
| CCOCCn1cc(C(=O)Nc2ccc(-n3nc(-c4cccnc4)cc3C(F)(F)F)cn2)ccc1=O | U2OS | % | 64 |
| CN(C)C(=O)/C(C#N)=C/c1ccc(-c2nc3cnc4[nH]ccc4c3n2C2CCCCC2)o1 | U2OS | % | 47 |
| CNCc1ccccc1-c1csc([C@H](C)Nc2nc(C)nc3cc(OC)c(OC)cc23)c1 | U2OS | % | 1 |
| c1cn2cc(-c3ccc4cn[nH]c4c3)nc(Nc3ccc(N4CCOCC4)cc3)c2n1 | U2OS | % | 7 |
| CC(C)(O)CNc1ncc(-c2ccnc(Nc3ccnc(Cl)c3)n2)c(CC2CC2)n1 | U2OS | % | 12 |
| CN(C)CC#Cc1ccc(OCCCc2sc(N3CCc4cccc(C(=O)Nc5nc6ccccc6s5)c4C3)nc2C(=O)O)c(F)c1 | U2OS | % | 32 |
| Cc1cc(C)cc(-c2cnc3cc(Cl)c(-c4cccc(O)c4)cc3c2OCCCN)c1 | U2OS | % | 3 |
| Cc1[nH]c(/C=C2\C(=O)Nc3ccc(S(=O)(=O)N(C)c4cccc(Cl)c4)cc32)c(C)c1C(=O)N1CCN(C)CC1 | U2OS | % | 50 |
| CCn1c(=O)c(-c2ccc(Cl)cc2Cl)cc2cnc(Nc3ccc(N4CCNCC4)c(F)c3)nc21 | U2OS | % | 10 |
| CN1CCCC(n2nc(Cc3ccc(Cl)cc3)c3ccccc3c2=O)CC1.Cl (centres undefined) [AZELASTINE HYDROCHLORIDE] | U2OS | % | 39 |

Reference for the values: ChEMBL document CHEMBL4689842
